System: SF-268
method: NCI tumour cell line growth inhibition, 48 h
Calls of active or inactive are those of the source. No stated cut-off is given here; in the data, active = GI50 up to about 1.1 µM and inactive = higher.
Assign a class; possible classes are active, inactive

Before answering, review these 8 worked examples.
INSERT INTO results (compound, category) VALUES
  ('C=C1C(=O)OC2C[C@H](C)C3CC(=O)C(C)=C3CC12 (stereo not given in full)', 'inactive'),
  ('CC(C)OC(=O)Nc1c([N+](=O)[O-])cc(C(F)(F)F)cc1[N+](=O)[O-]', 'inactive'),
  ('CCCCC(=O)OC[n+]1ccc2c(C)c3[nH]c4ccccc4c3c(C)c2c1', 'active'),
  ('CCCCCCCC(=O)NS(=O)(=O)c1ccccc1', 'inactive'),
  ('N#Cc1c(-c2ccc(F)cc2)c(-c2ccc(F)cc2)nn(CCO)c1=O', 'active'),
  ('COc1ccc(/C=C2\NC(=S)N(CN3CCCCC3)C2=O)cc1', 'inactive'),
  ('CC/C(=C(\c1ccccc1)c1ccc(OCC[N+](C)(C)C)cc1)c1ccccc1 [TAMOXIFEN METHYL IODIDE]', 'inactive'),
  ('COc1cccc2c1C(=O)c1c(O)c3c(c(O)c1C2=O)C[C@@](O)(C(=O)CO)CC3OC1CC(NCCOCC(OC(C)=O)OC(C)=O)C(O)C(C)O1 (stereo not given in full)', 'active');

Request: Name the outcome recorded for COC(=O)[C@@]1(C(C)CC(=O)O)CCCCC1=O (stereo not given in full) in the assay.
Result: inactive

Request: What did the test return for Cc1cc(Cl)nc(Nc2nc3ccccc3[nH]2)n1 ?
Result: inactive

====

Test system: ACHN
method: NCI tumour cell line growth inhibition, 48 h
Calls of active or inactive are those of the source. Rule as the data show it: active = GI50 up to about 1.1 µM and inactive = higher.
readout.kind: GI50

INSERT INTO measurements (compound, tested_on, readout_kind, result) VALUES
  ('COc1ccc(CC(COS(=O)(=O)c2ccc(C)cc2)NS(=O)(=O)c2ccc(C)cc2)cc1 (centres undefined)', 'ACHN', 'GI50', '12.3 µM (inactive)');

Give me GI50 for each of these compounds, listed below.
1. O=C(CC(=O)N1N=C(c2ccccc2)C(/N=N/c2ccc(C(=O)O)cc2)C1=O)Nc1ccc(F)cc1 (centres undefined)
2. COc1cc2c(cc1OC)-c1cc3ccccc3c(=O)n1CCC2
3. COc1cc2c(c(OC)c1OC)-c1ccc(SC)cc1C(O)CC2 (centres undefined)
4. CCOC(=O)C(SCCO)C(C(=O)OCC)n1ccc(N)nc1=O (centres undefined)
5. C=C1CC2(CCCC3(CC(=C)C(=O)O3)C2(C)C)OC1=O (centres undefined)

Result:
1: 23.6 µM (inactive); 2: 13.4 µM (inactive); 3: < 0.01 µM (active); 4: > 100 µM (inactive); 5: 1.07 µM (active)

# map each compound to its GI50
1. O=c1[nH]c(=O)n(C2OC(CO)C(O)C2O)cc1OCCc1ccccc1 (centres undefined)
2. CC1=NNC(=O)C1C1CC(c2c[nH]c3ccccc23)=NNC1=O (centres undefined)
3. COc1ccc(/C(Cl)=C(\C=O)c2ccc([N+](=O)[O-])cc2)cc1
4. COc1ccc(-n2c(N)c(C#N)[nH]c2=O)cc1
5. COC(=O)C1CCC(=O)N1CN(C(C)=O)c1ccccc1Cl (centres undefined)
6. O=C1Nc2ccc(Br)cc2/C1=N/S(=O)(=O)O
7. CC(C)CC(NC=O)C(=O)NC(Cc1ccccc1)NC(=O)CNC(=O)C(C)NC(=O)OC(C)(C)C (centres undefined)

Result:
["> 100 µM (inactive)", "> 100 µM (inactive)", "18.5 µM (inactive)", "> 10 µM (inactive)", "> 100 µM (inactive)", "45.9 µM (inactive)", "> 100 µM (inactive)"]

Each of the following entries comes with a recorded value; kindly state GI50 for each.
1. CC1=C(C)C(=O)c2c(cc3c4ccccc4ccn23)C1=O
2. O=C1Nc2ccc(S(=O)(=O)O)cc2/C1=N/Nc1ccccc1[N+](=O)[O-]
3. N#Cc1ncc(C(Cl)Cl)nc1Cl
4. CC(C)C1=C2CCC3(C)C(CCC4C5C6OCC5(CCC6(C)C)CCC43C)C2(C)CC1 (centres undefined)

Result:
1: > 100 µM (inactive); 2: > 100 µM (inactive); 3: 2.04 µM (inactive); 4: 20 µM (inactive)

For every record below, what is its GI50?
1. Cc1cn(CC2=NCCN2)c(=O)[nH]c1=O
2. COc1ccc2oc(=N)c(C(=O)Nc3cccc4ccccc34)cc2c1
3. CN(C)CCNC(=O)c1cccc2nc3c(nc12)-c1ccccc1C3=O
4. CC(=O)Nc1ccc2cc(C)c(O)nc2n1
5. O=C1NCC(CSc2nc3cc(C4CCCc5c4[nH]c4ccccc54)ccc3o2)N1 (centres undefined)
6. O=C(O)C1CC(C2CCCCN2)CN2CCCCC12 (centres undefined)
7. CNc1ccc(Cl)cc1C(=O)N1CCC[C@H]1CO

Result:
> 100 µM (inactive)
25.5 µM (inactive)
4.78 µM (inactive)
> 100 µM (inactive)
34.2 µM (inactive)
> 100 µM (inactive)
> 100 µM (inactive)
